test: Solubility of the compound in Japanese pharmacopoeia first fluid at pH 1.2; type: physicochemical
parameter.measured: solubility (µM)

[[record]]
compound_structure_string = "CN(c1cc(N2CCc3cc(S(C)(=O)=O)ccc32)ncn1)[C@H]1CC[C@]2(CC1)COC(C)(C)C2"
reported_result = 418

[[record]]
compound_structure_string = "CCc1c(Nc2ccc(S(C)(=O)=O)cc2F)ncnc1O[C@H]1CC[C@]2(CC1)COC(C)(C)C2"
reported_result = 4.6

[[record]]
compound_structure_string = "CC(C)c1c(Nc2ccc(S(C)(=O)=O)cc2F)ncnc1O[C@H]1CC[C@]2(CC1)COC(C)(C)C2"
reported_result = 0.7

[[record]]
compound_structure_string = "Cc1c(O[C@H]2CC[C@]3(CC2)COC(C)(C)C3)ncnc1N(C)c1ccc(S(C)(=O)=O)cc1F"
reported_result = 13

[[record]]
compound_structure_string = "Cc1c(O[C@H]2CC[C@]3(CC2)COC(C)(C)C3)ncnc1N1CCc2cc(S(C)(=O)=O)ccc21"
reported_result = 2.8


1: Cc1c(Nc2ccc(S(C)(=O)=O)cc2)ncnc1O[C@H]1CC[C@]2(CC1)COC(C)(C)C2
2: Cc1c(Nc2ccc(C(=O)N(C)C)cc2F)ncnc1O[C@H]1CC[C@]2(CC1)COC(C)(C)C2
When their solubility values are compared, which is larger, 1 or 2 ? Write down the label attached to your selection.
2
(2: 128 µM, 1: 4.4 µM)

I: CC1(C)C[C@]2(CC[C@H](Oc3ncnc4c3CCN4c3ccc(S(C)(=O)=O)cc3F)CC2)CO1
II: CC1(C)C[C@]2(CC[C@H](Oc3cc(N4CCc5cc(S(C)(=O)=O)ccc54)ncn3)CC2)CO1
Of I and II , whose reported solubility is numerically smaller? Write down the label attached to your selection.
II

---

molecular target: Glucose-dependent insulinotropic receptor (Homo sapiens); assay: Intrinsic activity at human GPR119 expressed in HEK293 cells assessed as intracellular cAMP accumulation after 30 mins by HTRF assay relative to oleoylethanolamide; assay type: functional, cell-based
parameter.measured: Intrinsic activity (%)

[[record]]
compound = "Cc1c(Nc2ccc(C(=O)N(C)C)cc2F)ncnc1O[C@H]1CC[C@]2(CC1)COC(C)(C)C2"
reported_result = 101


P: Cc1c(Nc2ccc(S(C)(=O)=O)cc2F)ncnc1O[C@H]1CC[C@]2(CC1)COC(C)(C)C2
Q: CC(C)c1c(Nc2ccc(S(C)(=O)=O)cc2F)ncnc1O[C@H]1CC[C@]2(CC1)COC(C)(C)C2
When their Intrinsic activity values are compared, which is larger, P or Q ? Write down the label attached to your selection.
P

a: CN(c1ncnc2c1CCN2c1ccc(S(C)(=O)=O)cc1F)[C@H]1CC[C@]2(CC1)COC(C)(C)C2
b: CCc1c(Nc2ccc(S(C)(=O)=O)cc2F)ncnc1O[C@H]1CC[C@]2(CC1)COC(C)(C)C2
When their Intrinsic activity values are compared, which is larger, a or b ? Write down the label attached to your selection.
a

---

biological target: Glucose-dependent insulinotropic receptor (Homo sapiens); test: Agonist activity at human GPR119 expressed in HEK293 cells assessed as intracellular cAMP accumulation after 30 mins by HTRF assay; format: functional, cell-based
pEC50: −log10 of the molar value.
parameter.measured: pEC50

Examples with answers:
[[record]]
compound = "CC1(C)C[C@]2(CC[C@H](Oc3ncnc4c3CCN4c3ccc(S(C)(=O)=O)cc3F)CC2)CO1"
reported_result = 8.30

[[record]]
compound = "Cc1c(Nc2ccc(S(C)(=O)=O)cc2)ncnc1O[C@H]1CC[C@]2(CC1)COC(C)(C)C2"
reported_result = 6.86

[[record]]
compound = "CC1(C)C[C@]2(CC[C@H](c3nc(COc4ccc(-n5cnnn5)cc4)cs3)CC2)CO1"
reported_result = 7.07

[[record]]
compound = "CN(c1cc(N2CCc3cc(S(C)(=O)=O)ccc32)ncn1)[C@H]1CC[C@]2(CC1)COC(C)(C)C2"
reported_result = 7.80

[[record]]
compound = "CC1(C)C[C@]2(CC[C@H](Oc3cc(N4CCc5cc(S(C)(=O)=O)ccc54)ncn3)CC2)CO1"
reported_result = 7.82

[[record]]
compound = "CC(C)c1c(Nc2ccc(S(C)(=O)=O)cc2F)ncnc1O[C@H]1CC[C@]2(CC1)COC(C)(C)C2"
reported_result = 7.01

[[record]]
compound = "Cc1c(Oc2ccc(S(C)(=O)=O)cc2F)ncnc1O[C@H]1CC[C@]2(CC1)COC(C)(C)C2"
reported_result = 7.23

[[record]]
compound = "CN(c1ncnc2c1CCN2c1ccc(S(C)(=O)=O)cc1F)[C@H]1CC[C@]2(CC1)COC(C)(C)C2"
reported_result = 7.41


a: CCc1c(Nc2ccc(S(C)(=O)=O)cc2F)ncnc1O[C@H]1CC[C@]2(CC1)COC(C)(C)C2
b: Cc1c(Nc2ccc(S(C)(=O)=O)cc2F)ncnc1O[C@H]1CC[C@]2(CC1)COC(C)(C)C2
When their pEC50 values are compared, which is larger, a or b ? Write down the label attached to your selection.
b
(b: 7.89, a: 7.38)

a: Cc1c(Nc2ccc(C(=O)N(C)C)cc2F)ncnc1O[C@H]1CC[C@]2(CC1)COC(C)(C)C2
b: CC(O[C@H]1CC[C@]2(CC1)COC(C)(C)C2)c1nc(-c2ccc(S(C)(=O)=O)c(F)c2)no1 (stereo not given in full)
When their pEC50 values are compared, which is larger, a or b ? Write down the label attached to your selection.
a

---

assay: Solubility of the compound in Japanese pharmacopoeia first fluid at pH 1.2; assay type: physicochemical
parameter.measured: solubility

Examples with answers:
[[record]]
compound_structure_string = "Cc1c(Nc2ccc(S(C)(=O)=O)cc2F)ncnc1N(C)[C@H]1CC[C@]2(CC1)COC(C)(C)C2"
reported_result = "> 475 µM"

[[record]]
compound_structure_string = "Cc1c(Oc2ccc(S(C)(=O)=O)cc2F)ncnc1O[C@H]1CC[C@]2(CC1)COC(C)(C)C2"
reported_result = "< 0.5 µM"

[[record]]
compound_structure_string = "CN(c1ncnc2c1CCN2c1ccc(S(C)(=O)=O)cc1F)[C@H]1CC[C@]2(CC1)COC(C)(C)C2"
reported_result = "> 475 µM"


Continue with the compound presented below.
GET /values?readout=solubility&item= Cc1c(Nc2ccc(S(C)(=O)=O)cc2F)ncnc1O[C@H]1CC[C@]2(CC1)COC(C)(C)C2
5.3 µM

---

Target: Glucose-dependent insulinotropic receptor (Homo sapiens) (UniProt Q8TDV5)
Sequence (whole entry): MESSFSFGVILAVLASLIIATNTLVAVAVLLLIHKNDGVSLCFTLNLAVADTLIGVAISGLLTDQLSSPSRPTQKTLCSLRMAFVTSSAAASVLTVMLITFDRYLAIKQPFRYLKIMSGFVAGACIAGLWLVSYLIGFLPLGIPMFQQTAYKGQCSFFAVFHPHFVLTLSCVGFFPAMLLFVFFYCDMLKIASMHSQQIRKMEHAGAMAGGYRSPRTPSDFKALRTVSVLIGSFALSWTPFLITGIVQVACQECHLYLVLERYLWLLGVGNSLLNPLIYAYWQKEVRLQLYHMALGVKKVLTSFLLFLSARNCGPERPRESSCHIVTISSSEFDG
Assay: Intrinsic activity at human GPR119 expressed in HEK293 cells assessed as intracellular cAMP accumulation after 30 mins by HTRF assay relative to oleoylethanolamide
Format: functional, cell-based
parameter.measured: Intrinsic activity (%)

[[record]]
compound = "CC1(C)C[C@]2(CC[C@H](Oc3cc(N4CCc5cc(S(C)(=O)=O)ccc54)ncn3)CC2)CO1"
reported_result = 87

[[record]]
compound = "Cc1c(Nc2ccc(S(C)(=O)=O)cc2F)ncnc1N(C)[C@H]1CC[C@]2(CC1)COC(C)(C)C2"
reported_result = 128

[[record]]
compound = "CC(O[C@H]1CC[C@]2(CC1)COC(C)(C)C2)c1nc(-c2ccc(S(C)(=O)=O)c(F)c2)no1 (stereo partly drawn)"
reported_result = 109


---

Reported pEC50 values are given for each entry in this list.
molecular target: Glucose-dependent insulinotropic receptor (Homo sapiens); experiment: Agonist activity at human GPR119 expressed in HEK293 cells assessed as intracellular cAMP accumulation after 30 mins by HTRF assay
pEC50: −log10 of the molar value.

[[record]]
compound_structure_string = "Cc1c(O[C@H]2CC[C@]3(CC2)COC(C)(C)C3)ncnc1N(C)c1ccc(S(C)(=O)=O)cc1F"
reported_result = "< 6.00"

[[record]]
compound_structure_string = "Cc1c(Nc2ccc(S(C)(=O)=O)cc2F)ncnc1N(C)[C@H]1CC[C@]2(CC1)COC(C)(C)C2"
reported_result = 7.35


GET /values?readout=pEC50&item= Cc1c(O[C@H]2CC[C@]3(CC2)COC(C)(C)C3)ncnc1N1CCc2cc(S(C)(=O)=O)ccc21
< 6.00
